Consider the following molecules; for each one, report its log10(CC50).
testSummary: Cytotoxicity against human HepG2(2.2.15) cells
Type: cell-based
A difference of one corresponds to tenfold CC50; all values are log10 with CC50 in µM.

Observe how each entry below is paired with its result.
structure | obsValue
CC1(C)[C@@H](O)CC[C@]2(C)[C@H]3C(=O)C=C4[C@@H]5C[C@@](C)(C(=O)OCC6CC6)CC[C@]5(C)CC[C@@]4(C)[C@]3(C)CC[C@@H]12 | 2.84
CC(=O)O[C@H]1CC[C@]2(C)[C@H]3C(=O)C=C4[C@@H]5C[C@@](C)(C(=O)O)CC[C@]5(C)CC[C@@]4(C)[C@]3(C)CC[C@H]2C1(C)C | 2.71
CC1(C)[C@@H](O)CC[C@]2(C)[C@H]3C(=O)C=C4[C@@H]5C[C@@](C)(C(=O)OCc6ccc(-n7cccn7)cc6)CC[C@]5(C)CC[C@@]4(C)[C@]3(C)CC[C@@H]12 | 3.30
CCOC(=O)CCCCCOC(=O)[C@@]1(C)CC[C@]2(C)CC[C@]3(C)C(=CC(=O)[C@@H]4[C@@]5(C)CC[C@H](O)C(C)(C)[C@@H]5CC[C@]43C)[C@@H]2C1 | 1.74

Now let's try a different one.
# input Query: log10(CC50); subject: CC1(C)[C@@H](O)CC[C@]2(C)[C@H]3C(=O)C=C4[C@@H]5C[C@@](C)(C(=O)OCCO)CC[C@]5(C)CC[C@@]4(C)[C@]3(C)CC[C@@H]12
# output 2.58
